# credit: paper PMC9609692

- method notes: In vivo pharmacokinetic study after oral administration
- Design: species or system Sprague-Dawley rats
- run conditions: male, Sprague-Dawley, rat, plasma, rats, equiv. 20 mg/kg MTX, n = 6
measure: AUC (ng·h/mL)
Answer format: numeric, ng·h/mL implied, no suffix.

Reported AUC for CN(Cc1cnc2nc(N)nc(N)c2n1)c1ccc(C(=O)N[C@@H](CCC(=O)O)C(=O)O)cc1 [MTX, Methotrexate] : what is it?
1740

----------
- method notes: In vivo pharmacokinetic study after oral administration
- Parameters: species or system Sprague-Dawley rats
- run conditions: male, Sprague-Dawley, rat, plasma, rats, equiv. 20 mg/kg MTX, n = 6
measure: half-life (min)
Answer format: numeric, min implied, no suffix.

Reported half-life for CN(Cc1cnc2nc(N)nc(N)c2n1)c1ccc(C(=O)N[C@@H](CCC(=O)O)C(=O)O)cc1 [MTX, Methotrexate] : what is it?
324

----------
- method notes: In vivo pharmacokinetic study after oral administration
- Design: species or system Sprague-Dawley rats
- run conditions: male, Sprague-Dawley, rat, plasma, rats, equiv. 20 mg/kg MTX, n = 6
measure: Tmax (h)
Answer format: numeric, h implied, no suffix.

Reported Tmax for CN(Cc1cnc2nc(N)nc(N)c2n1)c1ccc(C(=O)N[C@@H](CCC(=O)O)C(=O)O)cc1 [MTX, Methotrexate] : what is it?
1.13
